Reported values of A450 (13 nM Ab) for individual entries
- target_entity: T1, rat IL-21R expressed on cells (rat)
- T1 construct: whole, on cells
- protocol_text: cell ELISA, CHO cells

{"binder": "AbM (antibody, IgG1, V domains shown, As for AbA: IgG1/lambda, CDR3 graft, residue limits derived; also called VH6/VL13) VH: QVQLQESGPGLVKPSETLSLTCAVSGYSISSGYYWGWIRQPPGKGLEWIGSISHTGNTYYNPPLKSRVTISVDTSKNQFSLKLSSVTAADTAVYYCARFFGFGRPEYWGQGTLVTVSS VL: SSELTQDPAVSVALGQTVRITCQGDSLRTYYASWYQQKPGQAPVLVIYGKHKRPSGIPDRFSGSSSGNTASLTITGAQAEDEADYYCVTRNRYGNPHVLFGGGTQLTVL", "A450 (13 nM Ab) [A450]": 0.78}
{"binder": "AbK (antibody, IgG1, V domains shown, As for AbA: IgG1/lambda, CDR3 graft, residue limits derived; also called VH3/VL3) VH: QVQLQESGPGLVKPSETLSLTCAVSGYSISSGYYWGWIRQPPGKGLEWIGSISHTGNTYYNPPLKSRVTISVDTSKNQFSLKLSSVTAADTAVYYCARFMGFGRPEYWGQGTLVTVSS VL: SSELTQDPAVSVALGQTVRITCQGDSLRTYYASWYQQKPGQAPVLVIYGKHKRPSGIPDRFSGSSSGNTASLTITGAQAEDEADYYCVSRAVVGNPHVLFGGGTQLTVL", "A450 (13 nM Ab) [A450]": 1.18}
{"binder": "AbF (antibody, IgG1, V domains shown, As for AbA: IgG1/lambda, CDR3 graft, residue limits derived; also called VHP/VL17) VH: QVQLQESGPGLVKPSETLSLTCAVSGYSISSGYYWGWIRQPPGKGLEWIGSISHTGNTYYNPPLKSRVTISVDTSKNQFSLKLSSVTAADTAVYYCARGGGISRPEYWGQGTLVTVSS VL: SSELTQDPAVSVALGQTVRITCQGDSLRTYYASWYQQKPGQAPVLVIYGKHKRPSGIPDRFSGSSSGNTASLTITGAQAEDEADYYCSTRSRKGNPHVLFGGGTQLTVL", "A450 (13 nM Ab) [A450]": 1}
{"binder": "AbS (antibody, V domains shown, CDR3 graft, residue limits derived as for m29; also called VHP/VL6; VHPTM/VL6) VH: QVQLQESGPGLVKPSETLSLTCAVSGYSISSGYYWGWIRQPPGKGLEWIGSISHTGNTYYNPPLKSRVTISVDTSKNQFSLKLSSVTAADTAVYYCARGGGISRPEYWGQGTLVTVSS VL: SSELTQDPAVSVALGQTVRITCQGDSLRTYYASWYQQKPGQAPVLVIYGKHKRPSGIPDRFSGSSSGNTASLTITGAQAEDEADYYCMSRSIWGNPHVLFGGGTQLTVL", "A450 (13 nM Ab) [A450]": 1.17}
{"binder": "AbG (antibody, IgG1, V domains shown, As for AbA: IgG1/lambda, CDR3 graft, residue limits derived; also called VHP/VL18) VH: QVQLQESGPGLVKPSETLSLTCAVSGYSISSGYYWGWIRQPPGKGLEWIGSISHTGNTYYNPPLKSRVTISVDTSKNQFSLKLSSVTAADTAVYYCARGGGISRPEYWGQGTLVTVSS VL: SSELTQDPAVSVALGQTVRITCQGDSLRTYYASWYQQKPGQAPVLVIYGKHKRPSGIPDRFSGSSSGNTASLTITGAQAEDEADYYCVTRSVKGNPHVLFGGGTQLTVL", "A450 (13 nM Ab) [A450]": 1.11}
{"binder": "AbO (antibody, human IgG1, V domains shown, CDR3 graft, residue limits derived as for m29; also called VHP/VL16; VHPTM/VL16) VH: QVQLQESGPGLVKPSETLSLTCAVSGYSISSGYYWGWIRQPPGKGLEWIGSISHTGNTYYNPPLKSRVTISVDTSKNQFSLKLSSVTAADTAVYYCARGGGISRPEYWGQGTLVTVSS VL: SSELTQDPAVSVALGQTVRITCQGDSLRTYYASWYQQKPGQAPVLVIYGKHKRPSGIPDRFSGSSSGNTASLTITGAQAEDEADYYCVTRSAKGNPHVLFGGGTQLTVL", "A450 (13 nM Ab) [A450]": 1.1}
{"binder": "AbN (antibody, IgG1, V domains shown, As for AbA: IgG1/lambda, CDR3 graft, residue limits derived; also called VH6/VL24) VH: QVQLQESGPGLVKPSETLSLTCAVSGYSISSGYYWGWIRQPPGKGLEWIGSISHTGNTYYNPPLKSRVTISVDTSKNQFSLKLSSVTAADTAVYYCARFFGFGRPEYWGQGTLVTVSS VL: SSELTQDPAVSVALGQTVRITCQGDSLRTYYASWYQQKPGQAPVLVIYGKHKRPSGIPDRFSGSSSGNTASLTITGAQAEDEADYYCIARSNKGNPHVLFGGGTQLTVL", "A450 (13 nM Ab) [A450]": 0.702}
{"binder": "AbJ (antibody, IgG1, V domains shown, As for AbA: IgG1/lambda, CDR3 graft, residue limits derived; also called VH3/VLP) VH: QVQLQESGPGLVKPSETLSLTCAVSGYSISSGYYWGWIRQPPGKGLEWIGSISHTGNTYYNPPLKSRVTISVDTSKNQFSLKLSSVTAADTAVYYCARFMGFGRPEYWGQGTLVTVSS VL: SSELTQDPAVSVALGQTVRITCQGDSLRTYYASWYQQKPGQAPVLVIYGKHKRPSGIPDRFSGSSSGNTASLTITGAQAEDEADYYCNSRDSSGNPHVLFGGGTQLTVL", "A450 (13 nM Ab) [A450]": 1.26}
{"binder": "AbL (antibody, IgG1, V domains shown, As for AbA: IgG1/lambda, CDR3 graft, residue limits derived; also called VH3/VL13) VH: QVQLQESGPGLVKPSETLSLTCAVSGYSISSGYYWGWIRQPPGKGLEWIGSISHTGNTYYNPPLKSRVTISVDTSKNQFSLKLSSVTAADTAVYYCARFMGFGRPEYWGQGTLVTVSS VL: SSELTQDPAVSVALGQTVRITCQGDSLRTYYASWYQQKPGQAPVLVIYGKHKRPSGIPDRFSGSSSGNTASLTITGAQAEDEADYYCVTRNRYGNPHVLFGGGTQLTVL", "A450 (13 nM Ab) [A450]": 1.26}
{"binder": "AbE (antibody, IgG1, V domains shown, As for AbA: IgG1/lambda, CDR3 graft, residue limits derived; also called VHP/VL14) VH: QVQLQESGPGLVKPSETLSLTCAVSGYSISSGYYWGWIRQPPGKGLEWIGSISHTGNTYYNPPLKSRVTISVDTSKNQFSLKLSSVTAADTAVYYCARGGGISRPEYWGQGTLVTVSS VL: SSELTQDPAVSVALGQTVRITCQGDSLRTYYASWYQQKPGQAPVLVIYGKHKRPSGIPDRFSGSSSGNTASLTITGAQAEDEADYYCMARSRKGNPHVLFGGGTQLTVL", "A450 (13 nM Ab) [A450]": 1.11}

Reference for the values: patent US20120276102A1
